The origin of these recorded values is paper PMC9363231.

Some compounds, each annotated with its measured IC50.
- MEASURED_TARGET: HLA-DRB1*03:01 (Homo sapiens, UniProt P01903+P01911, A100K/A102G/A103R/A169T/F55Y/I96L/K41T/L162R/M171V/P40S/Q125H/Q178H/Q39Y/R42S/S66N/T106N/T262R/W38E/Y61H)
- Sequence (P01903 26-254, other chains not shown): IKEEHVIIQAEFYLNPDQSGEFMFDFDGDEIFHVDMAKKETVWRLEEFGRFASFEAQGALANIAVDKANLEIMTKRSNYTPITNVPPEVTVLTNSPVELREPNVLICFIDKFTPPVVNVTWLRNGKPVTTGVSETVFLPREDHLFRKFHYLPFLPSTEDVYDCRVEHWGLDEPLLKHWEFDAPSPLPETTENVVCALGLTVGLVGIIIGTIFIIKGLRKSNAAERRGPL
- TEST_DETAILS: biochemical
- Type: binding

Determine from records and report IC50 for CC(C)[C@H](N)C(=O)N[C@@H](Cc1ccccc1)C(=O)N[C@@H](CC(N)=O)C(=O)N[C@@H](C)C(=O)N[C@H](C(=O)N[C@@H](CCCNC(=N)N)C(=O)N[C@@H](Cc1ccccc1)C(=O)N[C@@H](C)C(=O)N[C@@H](CO)C(=O)N[C@H](C(=O)N[C@@H](Cc1ccc(O)cc1)C(=O)N[C@@H](C)C(=O)N[C@@H](Cc1c[nH]c2ccccc12)C(=O)N[C@@H](CC(N)=O)C(=O)N[C@@H](CCCNC(=N)N)C(=O)O)C(C)C)[C@@H](C)O [peptide 69]
> 40 µM

Determine from records and report IC50 for CC[C@H](C)[C@H](NC(=O)CN)C(=O)N[C@@H](Cc1ccc(O)cc1)C(=O)N[C@@H](CCC(N)=O)C(=O)N[C@H](C(=O)N[C@@H](CO)C(=O)N[C@@H](CC(N)=O)C(=O)N[C@@H](Cc1ccccc1)C(=O)N[C@@H](CCCNC(=N)N)C(=O)N[C@H](C(=O)N[C@@H](CCC(N)=O)C(=O)N1CCC[C@H]1C(=O)N[C@H](C(=O)N[C@@H](CCC(=O)O)C(=O)N[C@@H](CO)C(=O)O)[C@@H](C)O)C(C)C)[C@@H](C)O
> 40 µM

Determine from records and report IC50 for CC[C@H](C)[C@H](NC(=O)[C@H](CCCCN)NC(=O)[C@@H](N)Cc1ccccc1)C(=O)N[C@@H](Cc1ccc(O)cc1)C(=O)N[C@@H](CO)C(=O)N[C@@H](CCCCN)C(=O)N[C@@H](Cc1c[nH]cn1)C(=O)N[C@H](C(=O)N1CCC[C@H]1C(=O)N[C@H](C(=O)N[C@@H](CC(N)=O)C(=O)N[C@@H](CC(C)C)C(=O)N[C@H](C(=O)N[C@@H](CCCNC(=N)N)C(=O)N[C@@H](CC(=O)O)C(=O)O)C(C)C)[C@@H](C)CC)[C@@H](C)O [peptide 41]
> 40 µM

Determine from records and report IC50 for CC(C)C[C@H](NC(=O)[C@H](C)NC(=O)[C@H](CC(C)C)NC(=O)[C@H](CC(C)C)NC(=O)[C@@H](NC(=O)[C@H](CCC(N)=O)NC(=O)[C@H](Cc1ccccc1)NC(=O)[C@H](CCCNC(=N)N)NC(=O)[C@@H](N)[C@@H](C)O)[C@@H](C)O)C(=O)N[C@@H](Cc1c[nH]cn1)C(=O)N[C@@H](CCCNC(=N)N)C(=O)N[C@@H](CO)C(=O)N[C@@H](Cc1ccc(O)cc1)C(=O)N[C@@H](CC(C)C)C(=O)N[C@H](C(=O)O)[C@@H](C)O [peptide 48]
13.8 µM

Determine from records and report IC50 for CC(C)[C@H](NC(=O)CNC(=O)[C@H](Cc1ccc(O)cc1)NC(=O)[C@H](CS)NC(=O)[C@H](CCCCN)NC(=O)[C@H](Cc1ccccc1)NC(=O)[C@@H](NC(=O)[C@H](CO)NC(=O)[C@H](Cc1ccccc1)NC(=O)[C@H](CO)NC(=O)[C@H](C)NC(=O)[C@@H](N)CO)[C@@H](C)O)C(=O)N[C@@H](CO)C(=O)N1CCC[C@H]1C(=O)N[C@H](C(=O)O)[C@@H](C)O [peptide 75]
> 40 µM

Determine from records and report IC50 for CC(C)C[C@H](NC(=O)[C@H](CCCNC(=N)N)NC(=O)[C@H](Cc1ccc(O)cc1)NC(=O)[C@H](CC(C)C)NC(=O)[C@@H](N)Cc1ccc(O)cc1)C(=O)N[C@@H](Cc1ccccc1)C(=O)N[C@@H](CCCNC(=N)N)C(=O)N[C@@H](CCCCN)C(=O)N[C@@H](CO)C(=O)N[C@@H](CC(N)=O)C(=O)N[C@@H](CC(C)C)C(=O)N[C@@H](CCCCN)C(=O)N1CCC[C@H]1C(=O)N[C@@H](Cc1ccccc1)C(=O)N[C@@H](CCC(=O)O)C(=O)O [peptide 91]
> 40 µM
